- assay-name: Drug level in mesenteric fat tissue of cynomolgus monkey at 0.4 mg/kg, po after 2 hrs
- Assay type: ADME, organism-based, Macaca fascicularis, Adipose tissue
- Parameters: dose 0.4 mg/kg, route oral
- experimental-conditions: read-out: Drug uptake
measure-name: concentration at 2 h

- smiles-record: "C[C@@H]1CN(CC2(C(N)=O)CC2)CCN1S(=O)(=O)c1ccc([C@](C)(O)C(F)(F)F)cc1"
  measure-name: "concentration at 2 h"
  value-measured: "105 nM"

----------
- assay-name: Oral bioavailability in rat
- Format: ADME, organism-based
- experimental-conditions: in vivo
measure-name: bioavailability (%)

- compound: "C[C@@H]1CN(CC2(c3ccncc3)CC2)CCN1S(=O)(=O)c1ccc(C(C)(O)C(F)(F)F)cc1 (stereo partly specified)"
  measure-name: "bioavailability"
  unit-abbreviation: "%"
  value-measured: 60
